system tested: Human EGF receptor tyrosine kinase (Homo sapiens)
Construct: Human EGF receptor tyrosine kinase was isolated from A431 human epidermoid carcinoma cells which overexpress EGF receptor; endogenous in cells; host or cells: A431 human epidermoid carcinoma cells; purified on wheat germ agglutinin sepharose
Sequence (P00533 25-1210): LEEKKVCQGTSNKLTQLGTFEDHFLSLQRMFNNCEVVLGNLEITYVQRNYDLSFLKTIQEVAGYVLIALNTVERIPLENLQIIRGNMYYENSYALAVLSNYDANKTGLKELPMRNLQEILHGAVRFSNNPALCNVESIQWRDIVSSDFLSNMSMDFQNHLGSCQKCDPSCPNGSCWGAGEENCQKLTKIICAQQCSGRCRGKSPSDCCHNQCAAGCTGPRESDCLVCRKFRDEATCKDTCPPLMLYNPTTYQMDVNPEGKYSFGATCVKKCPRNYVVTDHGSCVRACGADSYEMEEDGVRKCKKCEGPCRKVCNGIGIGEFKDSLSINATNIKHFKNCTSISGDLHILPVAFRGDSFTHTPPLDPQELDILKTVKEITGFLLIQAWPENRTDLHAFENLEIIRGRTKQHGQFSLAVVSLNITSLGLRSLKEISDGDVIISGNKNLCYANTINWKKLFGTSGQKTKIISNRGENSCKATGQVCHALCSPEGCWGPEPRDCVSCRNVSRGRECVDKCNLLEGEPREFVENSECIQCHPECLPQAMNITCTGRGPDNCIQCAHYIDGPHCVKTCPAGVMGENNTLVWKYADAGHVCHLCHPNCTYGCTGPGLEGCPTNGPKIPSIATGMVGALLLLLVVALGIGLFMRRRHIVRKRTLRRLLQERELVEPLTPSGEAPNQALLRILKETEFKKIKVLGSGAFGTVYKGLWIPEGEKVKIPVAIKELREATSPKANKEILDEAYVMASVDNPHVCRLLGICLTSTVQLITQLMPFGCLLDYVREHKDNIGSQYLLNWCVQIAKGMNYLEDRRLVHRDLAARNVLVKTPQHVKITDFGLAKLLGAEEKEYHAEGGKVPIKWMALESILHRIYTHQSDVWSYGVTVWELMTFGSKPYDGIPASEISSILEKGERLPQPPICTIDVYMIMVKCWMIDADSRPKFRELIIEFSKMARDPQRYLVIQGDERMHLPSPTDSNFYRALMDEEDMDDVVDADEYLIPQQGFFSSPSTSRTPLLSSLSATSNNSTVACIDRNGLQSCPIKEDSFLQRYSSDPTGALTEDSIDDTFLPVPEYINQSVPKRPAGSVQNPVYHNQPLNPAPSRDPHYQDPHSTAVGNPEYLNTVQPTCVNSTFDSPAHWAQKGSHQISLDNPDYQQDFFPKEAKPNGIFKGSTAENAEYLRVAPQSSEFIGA
assay remarks: EGF receptor tyrosine kinase inhibition (phosphorylation of PLC-gamma 1 derived peptide)
Format: biochemical
settings: EGF Receptor Tyrosine Kinase Inhibition, Table 1, values in nM; read-out: IC50 in EGFR
Counter-ions that a name gives are not always drawn.
reported property: IC50 (nM)

compound: c1ccc(Nc2ncnc3[nH]c4ccccc4c23)cc1 [Example 27, 4-Anilinoindolo[2,3-d]pyrimidine]
reported result: 264
--
compound: Nc1nc(Nc2cccc(Br)c2)c2c(n1)[nH]c1ccccc12 [Example 32]
reported result: 160
--
compound: Brc1cccc(Nc2ncnc3[nH]c4ccccc4c23)c1 [Example 28, hydrochloride]
reported result: 31
--
compound: O=[N+]([O-])c1ccc2sc3c(Nc4cccc(Br)c4)ncnc3c2c1 [Example 16]
reported result: 12.3
--
compound: C[C@@H](Nc1ncnc2cc3ccccc3cc12)c1ccccc1 [Example 2, hydrochloride]
reported result: 21

A = C[C@@H](Nc1ncnc2c1sc1ccccc12)c1ccccc1 [Example 14]
B = Brc1cccc(Nc2ncnc3c2sc2ccccc23)c1 [Example 15]
Problem: Given the entries A and B , determine which has the lower reported IC50. When you have decided, please share the label of that item.
B
(B: 1.8 nM, A: 538 nM)

P = c1ccc(CNc2ncnc3c2[nH]c2ccccc23)cc1 [Example 23, 4-Benzylaminoindolo[3,2-d]pyrimidine]
Q = Cn1c2ccccc2c2c(Nc3cccc(Br)c3)ncnc21 [Example 29]
Kindly identify which of P and Q has the larger recorded IC50 value. Write the label of whichever entry you select.
Q
